Values of pIC50 reported for Beta-secretase 1 (Homo sapiens, UniProt P56817) appear below.
Non-standard residues stand in square brackets, D forms with d. Residues, ends and D or L forms follow the SMILES beside them. Sta = CC(C)C[C@H](N)[C@@H](O)CC(=O)O; 3Amb = NCc1cccc(C(=O)O)c1
On this scale, pIC50 is minus log10 of a concentration expressed in M (mol/L).

Sample answers from the record:
compound="CC[C@H](C)[C@H](NC(C)=O)C(=O)N[C@@H](C)C(=O)N[C@@H](CC(C)C)[C@@H](O)CC(=O)N[C@@H](Cc1ccc(O)cc1)C(=O)NCc1cccc(C(=O)O)c1 (Ac-IA[Sta]Y[3Amb]-OH)" assay_readout=pIC50 measurement=6.96
compound="CC[C@H](C)[C@H](NC(C)=O)C(=O)N[C@@H](C)C(=O)N[C@@H](CC(C)C)[C@@H](O)CC(=O)N[C@@H](Cc1ccccc1)C(=O)NCc1cccc(C(=O)O)c1 (Ac-IA[Sta]F[3Amb]-OH)" assay_readout=pIC50 measurement=6.60
compound="CC[C@H](C)[C@H](NC(C)=O)C(=O)N[C@@H](CCSC)C(=O)N[C@@H](CC(C)C)[C@@H](O)CC(=O)N[C@@H](Cc1ccccc1)C(=O)NCc1cccc(C(=O)O)c1 (Ac-IM[Sta]F[3Amb]-OH)" assay_readout=pIC50 measurement=6.85

Consider now this further compound.
Lab entry: Beta-secretase 1 (Homo sapiens, UniProt P56817) assay, compound CC(C)C[C@H](NC(=O)[C@H](CC(N)=O)NC(=O)[C@@H](NC(=O)[C@@H](N)CCC(=O)O)C(C)C)[C@@H](O)CC(=O)N[C@H](C(=O)N[C@@H](C)C(=O)N[C@@H](CCC(=O)O)C(N)=O)C(C)C (H-EVN[Sta]VAE-NH2) , pIC50 = 6.96

* * *

We begin with a simple list: items and their reported IC50.
- System name: Beta-secretase 1 (Homo sapiens, UniProt P56817)
- Sequence (P56817 whole entry): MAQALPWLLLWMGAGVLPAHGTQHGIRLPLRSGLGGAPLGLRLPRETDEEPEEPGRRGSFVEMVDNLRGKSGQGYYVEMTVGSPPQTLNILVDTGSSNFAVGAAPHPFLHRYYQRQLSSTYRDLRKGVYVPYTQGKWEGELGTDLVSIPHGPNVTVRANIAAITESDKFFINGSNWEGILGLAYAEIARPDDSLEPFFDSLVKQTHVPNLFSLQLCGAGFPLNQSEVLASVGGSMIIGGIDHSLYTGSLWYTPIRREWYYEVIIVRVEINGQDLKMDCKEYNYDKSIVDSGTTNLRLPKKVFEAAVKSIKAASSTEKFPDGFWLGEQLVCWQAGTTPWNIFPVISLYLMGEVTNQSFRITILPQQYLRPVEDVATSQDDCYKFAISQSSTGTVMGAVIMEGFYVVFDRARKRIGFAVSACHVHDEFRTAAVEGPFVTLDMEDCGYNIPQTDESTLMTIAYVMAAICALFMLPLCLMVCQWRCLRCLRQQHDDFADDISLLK
Non-standard residues stand in square brackets, D forms with d. Residues, ends and D or L forms follow the SMILES beside them. Sta = CC(C)C[C@H](N)[C@@H](O)CC(=O)O; 3Amb = NCc1cccc(C(=O)O)c1
Unit nM implied. Number only.

compound="CC[C@H](C)[C@H](NC(C)=O)C(=O)N[C@@H](CCSC)C(=O)N[C@@H](CC(C)C)[C@@H](O)CC(=O)N[C@@H](Cc1ccc(O)cc1)C(=O)NCc1cccc(C(=O)O)c1 (Ac-IM[Sta]Y[3Amb]-OH)" assay_readout=IC50 measurement=91

Form: item CSCC[C@H](NC(=O)[C@@H](NC(=O)[C@@H](N)CCC(=O)O)C(C)C)C(=O)N[C@@H](CC(C)C)[C@@H](O)CC(=O)N[C@@H](CC(C)C)C(=O)N[C@@H](C)C(=O)N[C@@H](CCC(=O)O)C(=O)N[C@@H](Cc1ccccc1)C(=O)O (H-EVM[Sta]LAEF-OH) ; test system Beta-secretase 1 (Homo sapiens, UniProt P56817); IC50: 140

* * *

For reference, IC50 measured on UniProt P56817:
Non-standard residues stand in square brackets, D forms with d. Residues, ends and D or L forms follow the SMILES beside them. *: point of attachment. Sta = CC(C)C[C@H](N)[C@@H](O)CC(=O)O; 3Amb = NCc1cccc(C(=O)O)c1; Nle = CCCC[C@H](N)C(=O)O; X1 = O=C(C1CCCCO1)*
Please give a number only; it is taken to be in µM.

compound="CC(C)C[C@H](NC(=O)[C@H](CC(N)=O)NC(=O)[C@@H](NC(=O)[C@@H](N)CCC(=O)O)C(C)C)[C@@H](O)CC(=O)N[C@H](C(=O)N[C@@H](C)C(=O)N[C@@H](CCC(=O)O)C(=O)N[C@@H](Cc1ccccc1)C(=O)O)C(C)C (H-EVN[Sta]VAEF-OH)" system_name="UniProt P56817" assay_readout=IC50 measurement=0.046
compound="CC[C@H](C)[C@H](NC(=O)C1CCCCO1)C(=O)N[C@@H](C)C(=O)N[C@@H](CC(C)C)[C@@H](O)CC(=O)N[C@H](C(=O)NCc1cccc(C(=O)O)c1)C(C)C (some centres undefined) (X1-IA[Sta]V[3Amb]-OH)" system_name="UniProt P56817" assay_readout=IC50 measurement=0.069

Form field IC50, entry CC(C)C[C@H](NC(=O)[C@H](C)NC(=O)[C@@H](NC(=O)[C@@H](N)CCC(=O)O)C(C)C)[C@@H](O)CC(=O)N[C@H](C(=O)N[C@@H](C)C(=O)N[C@@H](CCC(=O)O)C(=O)N[C@@H](Cc1ccccc1)C(=O)O)C(C)C (H-EVA[Sta]VAEF-OH) : 0.11

Just so you know, measured IC50 for CCCC[C@H](NC(C)=O)C(=O)N[C@@H](C)C(=O)N[C@@H](CC(C)C)[C@@H](O)CC(=O)N[C@H](C(=O)NCc1cccc(C(=O)O)c1)C(C)C (Ac-[Nle]A[Sta]V[3Amb]-OH) came out at 1.4

Notebook: CC(=O)N[C@H](C(=O)N[C@@H](C)C(=O)N[C@@H](CC(C)C)[C@@H](O)CC(=O)N[C@H](C(=O)NCc1cccc(C(=O)O)c1)C(C)C)C(C)C (Ac-VA[Sta]V[3Amb]-OH) , IC50 read as 3.8

For reference, reported IC50 for CSCC[C@H](NC(=O)[C@@H](NC(=O)[C@@H](N)CCC(=O)O)C(C)C)C(=O)N[C@@H](CC(C)C)[C@@H](O)CC(=O)N[C@H](C(=O)N[C@@H](C)C(=O)N[C@@H](CCC(=O)O)C(=O)N[C@@H](Cc1ccccc1)C(=O)O)C(C)C (H-EVM[Sta]VAEF-OH) stands at 0.058

Quick note, IC50 for CC(C)C[C@H](NC(=O)[C@H](CC(N)=O)NC(=O)[C@@H](NC(=O)[C@@H](N)CCC(=O)O)C(C)C)[C@@H](O)CC(=O)N[C@H](C(N)=O)C(C)C (H-EVN[Sta]V-NH2) landed at 9.4

Query CCCC[C@H](NC(=O)C[C@H](O)[C@H](CC(C)C)NC(=O)[C@H](C)NC(=O)[C@@H](NC(C)=O)[C@@H](C)CC)C(=O)NCc1cccc(C(=O)O)c1 (Ac-IA[Sta][Nle][3Amb]-OH) yields IC50 of 0.18

* * *

- System name: Beta-secretase 1 (Homo sapiens)
Non-standard residues stand in square brackets, D forms with d. Residues, ends and D or L forms follow the SMILES beside them. Sta = CC(C)C[C@H](N)[C@@H](O)CC(=O)O; 3Amb = NCc1cccc(C(=O)O)c1; Nva = CCC[C@H](N)C(=O)O
Assay readout: IC50 (nM)
Return type: number; implicit unit nM.

// IC50 lookup, compound = CCC[C@H](NC(=O)C[C@H](O)[C@H](CC(C)C)NC(=O)[C@H](CCSC)NC(=O)[C@@H](NC(C)=O)[C@@H](C)CC)C(=O)NCc1cccc(C(=O)O)c1 (Ac-IM[Sta][Nva][3Amb]-OH) , result: 130

IC50 reading for CC(C)C[C@H](NC(=O)[C@H](CC(N)=O)NC(=O)[C@@H](N)C(C)C)[C@@H](O)CC(=O)N[C@H](C(=O)N[C@@H](C)C(=O)N[C@@H](CCC(=O)O)C(=O)N[C@@H](Cc1ccccc1)C(=O)O)C(C)C (H-VN[Sta]VAEF-OH) : 2000

Query CC[C@H](C)[C@H](NC(=O)C[C@H](O)[C@H](CC(C)C)NC(=O)[C@H](CCSC)NC(=O)[C@@H](NC(=O)[C@@H](N)CCC(=O)O)C(C)C)C(=O)N[C@@H](C)C(=O)N[C@@H](CCC(=O)O)C(=O)N[C@@H](Cc1ccccc1)C(=O)O (H-EVM[Sta]IAEF-OH) yields IC50 of 220

* * *

For reference, IC50 measured on Beta-secretase 1 (Homo sapiens, UniProt P56817):
Non-standard residues stand in square brackets, D forms with d. Residues, ends and D or L forms follow the SMILES beside them. Sta = CC(C)C[C@H](N)[C@@H](O)CC(=O)O; 3Amb = NCc1cccc(C(=O)O)c1; Nle = CCCC[C@H](N)C(=O)O; Nva = CCC[C@H](N)C(=O)O
Give the quantity in nM, number only.

In the examples that follow, each entry is paired with its recorded IC50.
compound="CC[C@H](C)[C@H](NC(C)=O)C(=O)N[C@@H](C)C(=O)N[C@@H](CC(C)C)[C@@H](O)CC(=O)N[C@@H](CC(C)C)C(=O)NCc1cccc(C(=O)O)c1 (Ac-IA[Sta]L[3Amb]-OH)" measurement=260
compound="CCCC[C@H](NC(=O)C[C@H](O)[C@H](CC(C)C)NC(=O)[C@H](CCSC)NC(=O)[C@@H](NC(C)=O)[C@@H](C)CC)C(=O)NCc1cccc(C(=O)O)c1 (Ac-IM[Sta][Nle][3Amb]-OH)" measurement=86
compound="CCC[C@H](NC(C)=O)C(=O)N[C@@H](C)C(=O)N[C@@H](CC(C)C)[C@@H](O)CC(=O)N[C@H](C(=O)NCc1cccc(C(=O)O)c1)C(C)C (Ac-[Nva]A[Sta]V[3Amb]-OH)" measurement=830

Now consider the entry below.
Tested on Beta-secretase 1 (Homo sapiens, UniProt P56817), the item CC(C)C[C@H](NC(=O)[C@H](CC(N)=O)NC(=O)[C@@H](NC(=O)[C@@H](N)CCC(=O)O)C(C)C)[C@@H](O)CC(=O)N[C@H](C(=O)N[C@@H](C)C(N)=O)C(C)C (H-EVN[Sta]VA-NH2) showed IC50 equal to 530
